Each recorded value in this set is attributed to the Human Domainome abundance scans (Beltran et al. 2025).

B1: E3 ubiquitin-protein ligase NEDD4-like, residues 539 to 589; numbered along this chain, Q96PU5 (parent)
chain: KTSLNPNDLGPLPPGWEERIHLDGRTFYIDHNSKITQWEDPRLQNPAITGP

- Variants of: B1
- Assay Comment: abundance fitness (aPCA) (normalised: wild type 0, dead -1); higher = more abundant; growth selection in yeast, the domain comes from the species named
- Cond: Homo sapiens
Classes by abundance fitness: lowest (below -0.4), middle (-0.4 to below -0.06), highest (-0.06 or more)

Variant Description: T36C
Category Label: highest
//
Variant Description: D8R
Category Label: highest
//
Variant Description: L12G
Category Label: lowest
//
Variant Description: N45G
Category Label: highest
//
Variant Description: R19V
Category Label: middle
//
Variant Description: Y28P
Category Label: middle
//
Variant Description: P13C
Category Label: lowest
//
Variant Description: S33G
Category Label: middle
//
Variant Description: H21A
Category Label: highest
//
Variant Description: L43Y
Category Label: middle
//
Variant Description: T49S
Category Label: middle
//
Variant Description: D23M
Category Label: lowest
//
Variant Description: H21D
Category Label: highest
//
Variant Description: G15D
Category Label: lowest
//
Variant Description: E18Y
Category Label: lowest
//
Variant Description: P46V
Category Label: highest
//
Variant Description: N7M
Category Label: highest
//
Variant Description: S33M
Category Label: middle
//
Variant Description: D40Q
Category Label: lowest
//
Variant Description: D23N
Category Label: middle
//
Variant Description: D30R
Category Label: lowest
//
Variant Description: E17D
Category Label: lowest
